assay-target: SARS-CoV-2 spike receptor binding domain (Wuhan) (SARS-CoV-2)
method-summary: filter
experimental-context: first 20 nt DNA, rest FANA (SEQ ID NO 3)
recorded-endpoint: Kd (nM)
Answer with a number only, understood to be in nM.

Ask: GET Kd | system: SARS-CoV-2 spike receptor binding domain (Wuhan) (SARS-CoV-2) | item: AAAAGGTAGTGCTGAATTCGUCGAACUAAUCCGAAUUGAUGGCAUAAAAAGCAUGUUUAGUUCGCUAUCCAGUUGGCCU [FANA-R8-17]
Reply: 29.5

---

assay-target: SARS-CoV-1 spike S1 (SARS-CoV-1)
method-summary: filter
recorded-endpoint: pKd
FYI, pKd means -log10 of a concentration in mol per litre.

Ask: GET pKd | system: SARS-CoV-1 spike S1 (SARS-CoV-1) | item: AAAAGGTAGTGCTGAATTCGCGAGCCCGCAUGAAAAGGGGAGAUAAAAAAUAUCUGUCGAUUCGCUAUCCAGUUGGCCU [FANA-R8-9]
Reply: 6.59

---

assay-target: SARS-CoV-2 spike receptor binding domain (Wuhan) (SARS-CoV-2) (UniProt P0DTC2)
method-summary: filter
experimental-context: first 20 nt DNA, rest FANA (SEQ ID NO 17)
recorded-endpoint: pKd
FYI, pKd means -log10 of a concentration in mol per litre.

Ask: Annotate the sequence AAAAGGTAGTGCTGAATTCGCGAGCCCGCAUGAAAAGGGGAGAUAUGCAAUAUCUGUCGAUUCGCUAUCCAGUUGGCCU [FANA-R8-22] with its measured pKd.
Reply: 7.67

Origin of the recorded values: patent US20230313203A1
